Provide the reported transcriptional activation domain activity of each item.
system: Saccharomyces cerevisiae; assay: transcriptional activation domain activity (GFP:mCherry ratio, weighted mean of sorted bins, harmonized to initial dataset scale) (arbitrary fluorescence ratio units); higher = stronger transcriptional activation; conditions: beta-estradiol 1 µM; induction time 4 h
// return a plain number; no unit text

Requested field: transcriptional activation domain activity. Item: ANLAFPDDNSTNIQLQPFSESQSQNKFDYDMFFRDSSKEGNNLFGEFLEDDDD
92800

Could you do the same for PIGIFFFFPFVWLFRVFIFLCISYCCFLVPYVCSRGSSFFWLPVSTLFLSFLF , please?
45000

One more sequence: CFFYSAIWLTTIPHCTGRCVRPCGVHLINLGHVCRNHSRYWGYCICNNKMTPY
57600

Now the same for MLSHLVVSTPHCSIMFGPSMDWTRVFAFFLLLRFSLHWISNNCFVSPLLLLCY
69800

Field entry: MGLPYFWFYKHTCFSVNYVSSLFVLFFFYFLVGVVGYVTMGLVIFFLFFFLFF
70300

Param item: VYILSFYLPSLFPSFFTHSLFFFLHLWSCSTSSQTNMRLPTLAFISLPFVLTF
53600

Subsequent entry: TSVLPIIAVHCAYKTPISDYILAFCYLLPYIYHSMGYLVRWLYLGLRVIFVAK
70400

Cool, now DRPRRDRADDKEATTPRSDAGSHKSRRRSRSRDDERRHSRRHRGGDGDFYRGG
17700

Try this sequence too: AINYASMCKQYERAEYTQRLMIELDPVLRHSWSRRLATWRLTETWTHYLVLNI
68900
